Origin of measurements: paper PMC11730611

- target system: T1, extROQ (Roquin, murine/human) (Mus musculus, UniProt Q4VGL6 89-404)
- T1 sequence: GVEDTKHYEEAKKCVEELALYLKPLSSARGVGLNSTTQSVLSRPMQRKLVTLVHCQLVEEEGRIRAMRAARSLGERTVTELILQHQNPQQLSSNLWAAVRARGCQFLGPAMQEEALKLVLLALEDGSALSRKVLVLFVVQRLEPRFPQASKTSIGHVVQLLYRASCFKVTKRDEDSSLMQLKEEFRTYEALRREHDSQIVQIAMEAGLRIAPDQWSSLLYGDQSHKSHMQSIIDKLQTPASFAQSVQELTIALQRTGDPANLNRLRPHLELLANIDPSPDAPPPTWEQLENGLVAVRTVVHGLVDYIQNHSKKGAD
- protocol details: EMSA

binder	Kd, nM
GGUGUGUUUAUUUCAGGAGACA (structured_RNA) [LI (lizard putative ADE)]	1840
GCACCCUCCCACACCGUUUUAGGUGUUCUGGGUG (structured_RNA) [HE (hedgehog Ox40 ADE)]	642
GCCCUGUGCCGUUUUAGGCGCUCCUGGGC (structured_RNA) [DK (dolphin/killer whale Ox40 ADE)]	847
GUCCCCUCUGCGCCGUUUUAGGCGUUUCUGGGCUGGC (structured_RNA) [EL (elephant Ox40 ADE)]	778
